Reference for the values: patent US9266878B2

assay target: PI3Kδ (Homo sapiens (Human), UniProt O00329)
Sequence (O00329 whole entry, one chain of several, canonical isoform): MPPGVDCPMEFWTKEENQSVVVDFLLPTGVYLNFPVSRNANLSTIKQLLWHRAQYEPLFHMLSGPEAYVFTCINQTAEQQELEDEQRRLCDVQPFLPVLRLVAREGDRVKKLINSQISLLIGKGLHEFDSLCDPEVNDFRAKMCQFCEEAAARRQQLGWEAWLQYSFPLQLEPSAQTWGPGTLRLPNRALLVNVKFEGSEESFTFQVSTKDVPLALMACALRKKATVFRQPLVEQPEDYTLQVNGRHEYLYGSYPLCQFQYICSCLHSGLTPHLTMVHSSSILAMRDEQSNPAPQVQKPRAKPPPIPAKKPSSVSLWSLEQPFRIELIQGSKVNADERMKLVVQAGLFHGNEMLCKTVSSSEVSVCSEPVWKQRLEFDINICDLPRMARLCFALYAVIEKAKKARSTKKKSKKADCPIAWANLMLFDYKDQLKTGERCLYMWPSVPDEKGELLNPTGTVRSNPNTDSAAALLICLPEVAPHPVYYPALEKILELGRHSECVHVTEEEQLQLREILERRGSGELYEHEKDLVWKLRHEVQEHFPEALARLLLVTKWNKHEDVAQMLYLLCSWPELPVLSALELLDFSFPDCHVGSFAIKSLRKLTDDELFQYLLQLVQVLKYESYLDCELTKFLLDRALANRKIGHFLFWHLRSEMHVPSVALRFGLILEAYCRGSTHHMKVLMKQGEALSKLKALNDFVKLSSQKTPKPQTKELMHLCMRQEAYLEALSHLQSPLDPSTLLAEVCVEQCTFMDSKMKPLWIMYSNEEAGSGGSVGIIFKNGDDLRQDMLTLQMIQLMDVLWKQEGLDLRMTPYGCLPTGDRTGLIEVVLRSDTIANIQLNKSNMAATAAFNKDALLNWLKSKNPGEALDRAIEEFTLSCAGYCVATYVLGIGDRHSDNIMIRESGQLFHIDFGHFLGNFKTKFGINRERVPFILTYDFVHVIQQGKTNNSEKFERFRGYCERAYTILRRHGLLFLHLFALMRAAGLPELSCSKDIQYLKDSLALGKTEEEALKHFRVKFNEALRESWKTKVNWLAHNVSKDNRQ
experimental protocol: Enzymatic activity of PI3K isoforms, TR-FRET assay (PIP3 formation)
Type: biochemical
condition parameters: bound given in uM
Experimental: Enzymatic activity of the class I PI3K isoforms was measured using a time-resolved fluorescence resonance energy transfer (TR-FRET) assay that monitors formation of the product 3,4,5-inositol triphosphate molecule (PIP3), as it competes with fluorescently labeled PIP3 for binding to the GRP-1 pleckstrin homology domain protein. […]

compound: C[C@H](Nc1ncnc(N)c1C#Cc1ncccc1CO)c1nc2cccc(Cl)c2c(=O)n1-c1ccccc1 [Compound 163a]
IC50: > 1 µM

* * *

assay target: PI3Kα (Homo sapiens (Human), UniProt P42336)
Sequence (P42336 whole entry, one chain of several, canonical isoform): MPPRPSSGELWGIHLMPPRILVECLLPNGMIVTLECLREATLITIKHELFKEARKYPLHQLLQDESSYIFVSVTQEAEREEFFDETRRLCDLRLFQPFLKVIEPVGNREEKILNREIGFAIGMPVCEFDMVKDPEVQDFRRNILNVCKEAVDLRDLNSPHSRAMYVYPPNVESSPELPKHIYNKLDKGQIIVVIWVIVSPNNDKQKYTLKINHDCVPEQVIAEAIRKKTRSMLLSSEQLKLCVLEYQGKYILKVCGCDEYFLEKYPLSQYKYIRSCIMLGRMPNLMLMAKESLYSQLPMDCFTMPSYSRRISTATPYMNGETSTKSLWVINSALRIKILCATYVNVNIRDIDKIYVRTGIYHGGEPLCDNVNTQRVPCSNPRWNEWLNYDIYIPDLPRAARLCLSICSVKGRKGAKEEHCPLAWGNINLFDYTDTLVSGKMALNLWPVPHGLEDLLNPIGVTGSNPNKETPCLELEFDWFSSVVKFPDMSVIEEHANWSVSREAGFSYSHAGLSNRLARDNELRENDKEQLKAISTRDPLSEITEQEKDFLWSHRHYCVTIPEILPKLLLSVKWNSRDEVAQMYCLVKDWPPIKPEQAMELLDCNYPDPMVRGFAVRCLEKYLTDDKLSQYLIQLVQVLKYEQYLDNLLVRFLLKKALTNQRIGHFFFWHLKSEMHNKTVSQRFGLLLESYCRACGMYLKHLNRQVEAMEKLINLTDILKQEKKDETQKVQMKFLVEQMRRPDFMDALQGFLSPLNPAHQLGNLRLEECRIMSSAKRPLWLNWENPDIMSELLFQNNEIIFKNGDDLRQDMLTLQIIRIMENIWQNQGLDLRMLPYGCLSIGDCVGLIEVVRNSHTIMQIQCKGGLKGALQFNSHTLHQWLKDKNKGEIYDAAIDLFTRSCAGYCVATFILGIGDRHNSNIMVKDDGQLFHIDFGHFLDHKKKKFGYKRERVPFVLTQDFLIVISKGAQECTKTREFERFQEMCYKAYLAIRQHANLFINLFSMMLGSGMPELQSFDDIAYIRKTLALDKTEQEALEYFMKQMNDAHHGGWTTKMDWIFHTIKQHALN
experimental protocol: Enzymatic activity of PI3K isoforms, TR-FRET assay (PIP3 formation)
Assay type: biochemical
condition parameters: bound given in uM
// reported IC50 for each item listed

molecule: C[C@H](Nc1ncnc(N)c1C#CC1CCCC1)c1nc2cccc(Cl)c2c(=O)n1-c1ccccc1 [Compound 144a]
assay target: PI3Kα (Homo sapiens (Human), UniProt P42336)
IC50: > 1 µM
//
molecule: C[C@H](Nc1ncnc(N)c1C#Cc1cc(C(F)F)ccn1)c1nc2cccc(Cl)c2c(=O)n1-c1ccccc1 [Compound 149a]
assay target: PI3Kα (Homo sapiens (Human), UniProt P42336)
IC50: > 1 µM
//
molecule: C[C@H](Nc1ncnc(N)c1C#Cc1ccc(C(F)(F)F)cn1)c1nc2cccc(Cl)c2c(=O)n1-c1cc(F)cc(F)c1 [Compound 134a]
assay target: PI3Kα (Homo sapiens (Human), UniProt P42336)
IC50: > 1 µM
//
molecule: C[C@H](Nc1ncnc(N)c1C#Cc1ccc(F)cn1)c1nc2c(Cl)cccc2c(=O)n1-c1ccccc1 [Compound 5a]
assay target: PI3Kα (Homo sapiens (Human), UniProt P42336)
IC50: > 1 µM
//
molecule: C[C@H](Nc1ncnc(N)c1C#Cc1ccc(F)cn1)c1nc2cccc(Cl)c2c(=O)n1-c1cccc(CN(C)S(C)(=O)=O)c1 [Compound 129a]
assay target: PI3Kα (Homo sapiens (Human), UniProt P42336)
IC50: > 1 µM
//
molecule: C[C@H](Nc1ncnc(N)c1C#Cc1cnccn1)c1nc2cccc(Cl)c2c(=O)n1N1CCCCCC1 [Compound 126a]
assay target: PI3Kα (Homo sapiens (Human), UniProt P42336)
IC50: > 1 µM
//
molecule: C[C@H](Nc1ncnc(N)c1C#CC(C)(C)O)c1nc2cccc(Cl)c2c(=O)n1-c1ccccc1 [Compound 29a]
assay target: PI3Kα (Homo sapiens (Human), UniProt P42336)
IC50: > 1 µM

* * *

assay target: PI3Kβ (Homo sapiens (Human), UniProt P42338)
Sequence (P42338 whole entry, canonical isoform): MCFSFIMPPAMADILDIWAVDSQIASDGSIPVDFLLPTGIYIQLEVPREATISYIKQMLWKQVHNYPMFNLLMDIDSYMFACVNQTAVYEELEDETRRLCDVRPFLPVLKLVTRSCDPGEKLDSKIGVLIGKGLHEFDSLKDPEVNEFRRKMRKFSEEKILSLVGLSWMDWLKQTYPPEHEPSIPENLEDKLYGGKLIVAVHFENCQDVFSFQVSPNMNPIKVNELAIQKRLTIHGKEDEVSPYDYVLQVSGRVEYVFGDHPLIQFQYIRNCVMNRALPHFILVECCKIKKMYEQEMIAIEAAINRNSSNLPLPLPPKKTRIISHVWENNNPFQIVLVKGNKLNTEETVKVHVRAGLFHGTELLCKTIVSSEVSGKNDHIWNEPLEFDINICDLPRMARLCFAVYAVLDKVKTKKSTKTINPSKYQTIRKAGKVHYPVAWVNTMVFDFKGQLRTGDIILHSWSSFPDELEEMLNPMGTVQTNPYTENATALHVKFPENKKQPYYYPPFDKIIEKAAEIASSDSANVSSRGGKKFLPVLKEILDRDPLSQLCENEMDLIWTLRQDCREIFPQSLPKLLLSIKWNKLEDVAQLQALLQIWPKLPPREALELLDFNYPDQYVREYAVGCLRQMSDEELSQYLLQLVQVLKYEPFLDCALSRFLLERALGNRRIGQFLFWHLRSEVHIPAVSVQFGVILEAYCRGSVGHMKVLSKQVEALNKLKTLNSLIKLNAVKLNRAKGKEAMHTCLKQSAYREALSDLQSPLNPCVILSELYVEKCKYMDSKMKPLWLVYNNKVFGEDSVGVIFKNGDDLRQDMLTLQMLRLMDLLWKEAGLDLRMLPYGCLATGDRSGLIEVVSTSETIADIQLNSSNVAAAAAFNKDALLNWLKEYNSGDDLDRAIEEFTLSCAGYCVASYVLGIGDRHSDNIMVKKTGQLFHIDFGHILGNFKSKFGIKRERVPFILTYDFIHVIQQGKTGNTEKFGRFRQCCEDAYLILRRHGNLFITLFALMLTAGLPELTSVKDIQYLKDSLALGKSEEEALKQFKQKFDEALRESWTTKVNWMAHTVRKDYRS
Sequence (P27986 whole entry partner, canonical isoform): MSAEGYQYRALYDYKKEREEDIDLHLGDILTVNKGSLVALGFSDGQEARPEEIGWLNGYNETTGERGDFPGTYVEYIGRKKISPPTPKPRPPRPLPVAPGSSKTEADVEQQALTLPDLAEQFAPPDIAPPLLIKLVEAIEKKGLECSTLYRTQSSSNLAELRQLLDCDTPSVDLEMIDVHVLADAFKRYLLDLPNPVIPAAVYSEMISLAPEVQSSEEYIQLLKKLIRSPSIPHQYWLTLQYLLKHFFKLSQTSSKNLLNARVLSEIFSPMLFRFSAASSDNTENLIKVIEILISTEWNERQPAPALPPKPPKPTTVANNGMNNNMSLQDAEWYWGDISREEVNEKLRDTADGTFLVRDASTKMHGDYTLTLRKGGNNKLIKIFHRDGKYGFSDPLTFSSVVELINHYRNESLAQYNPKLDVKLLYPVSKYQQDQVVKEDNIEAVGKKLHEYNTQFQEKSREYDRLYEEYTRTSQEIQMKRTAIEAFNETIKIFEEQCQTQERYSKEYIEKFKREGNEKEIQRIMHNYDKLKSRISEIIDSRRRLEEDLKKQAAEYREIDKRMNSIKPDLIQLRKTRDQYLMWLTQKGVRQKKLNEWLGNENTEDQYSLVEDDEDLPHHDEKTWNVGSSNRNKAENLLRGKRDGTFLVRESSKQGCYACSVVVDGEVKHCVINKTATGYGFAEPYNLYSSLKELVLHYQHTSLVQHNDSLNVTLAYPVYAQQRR
experimental protocol: Enzymatic activity of PI3K isoforms, TR-FRET assay (PIP3 formation)
Assay type: biochemical
condition parameters: bound given in uM
quantity name: IC50

compound: C[C@H](Nc1ncnc(N)c1C#Cc1cnccn1)c1nc2cccc(Cl)c2c(=O)n1N1CCCCCC1 [Compound 126a]
quantity name: IC50
endpoint value: > 1 µM
//
compound: C[C@H](Nc1ncnc(N)c1C#CC1CC1)c1nc2cccc(Cl)c2c(=O)n1-c1cc(F)cc(F)c1 [Compound 23a]
quantity name: IC50
endpoint value: > 1 µM
//
compound: CC[C@H](Nc1ncnc(N)c1C#Cc1cnccn1)c1nc2cccc(F)c2c(=O)n1-c1cc(F)cc(F)c1 [Compound 107a]
quantity name: IC50
endpoint value: > 1 µM
//
compound: C[C@H](Nc1ncnc(N)c1C#Cc1ccc(F)cn1)c1nc2ccc(F)cc2c(=O)n1-c1cccc(Cl)c1 [Compound 96a]
quantity name: IC50
endpoint value: > 1 µM
//
compound: C[C@H](Nc1ncnc(N)c1C#Cc1cnccn1)c1nc2cccc(C#N)c2c(=O)n1-c1ccccc1 [Compound 55a]
quantity name: IC50
endpoint value: > 1 µM
//
compound: COc1cc(F)cc(C#Cc2c(N)ncnc2N[C@@H](C)c2nc3cccc(F)c3c(=O)n2-c2ccccc2)c1 [Compound 65a]
quantity name: IC50
endpoint value: > 1 µM
//
compound: C[C@H](Nc1ncnc(N)c1C#Cc1ccc(F)cn1)c1nc2cccc(C(F)F)c2c(=O)n1-c1ccccc1 [Compound 67a]
quantity name: IC50
endpoint value: > 1 µM
//
compound: C[C@H](O)C#Cc1c(N)ncnc1N[C@@H](C)c1nc2cccc(Cl)c2c(=O)n1-c1cc(F)cc(F)c1 [Compound 20b]
quantity name: IC50
endpoint value: > 1 µM
//
compound: COC[C@@H](Nc1ncnc(N)c1C#Cc1ccc(F)cn1)c1nc2cccc(Cl)c2c(=O)n1-c1cc(F)cc(F)c1 [146b]
quantity name: IC50
endpoint value: > 1 µM
//
compound: C[C@H](Nc1ncnc(N)c1C#Cc1cnccn1)c1nc2cccc(Cl)c2c(=O)n1-c1cc(F)cc(F)c1 [Compound 85a]
quantity name: IC50
endpoint value: > 1 µM
//
compound: C[C@H](Nc1ncnc(N)c1C#Cc1cnccn1)c1nc2cccc(Cl)c2c(=O)n1C1C[C@H]2CC[C@@H](C1)N2C (stereo partly shown) [Compound 124a]
quantity name: IC50
endpoint value: > 1 µM
//
compound: C[C@H](Nc1ncnc(N)c1C#CC(C)(C)O)c1nc2cccc(Cl)c2c(=O)n1-c1ccccc1 [Compound 29a]
quantity name: IC50
endpoint value: > 1 µM
//
compound: C[C@H](Nc1ncnc(N)c1C#Cc1ncccn1)c1nc2cccc(Cl)c2c(=O)n1-c1cc(F)cc(F)c1 [Compound 103a]
quantity name: IC50
endpoint value: > 1 µM
//
compound: C[C@H](Nc1ncnc(N)c1C#Cc1ccc(F)cn1)c1nc2cccc(C(F)F)c2c(=O)n1-c1cccc(C#N)c1 [Compound 70a]
quantity name: IC50
endpoint value: > 1 µM
//
compound: C[C@H](Nc1ncnc(N)c1C#Cc1ccc(F)cn1)c1nc2cccc(O)c2c(=O)n1-c1ccccc1 [Compound 52a]
quantity name: IC50
endpoint value: > 1 µM
//
compound: Cc1cccc2nc([C@H](C)Nc3ncnc(N)c3C#Cc3ncccn3)n(-c3cc(F)cc(F)c3)c(=O)c12 [Compound 105a]
quantity name: IC50
endpoint value: > 1 µM

* * *

assay target: PI3Kβ (Homo sapiens (Human), UniProt P42338)
experimental protocol: Enzymatic activity of PI3K isoforms, TR-FRET assay (PIP3 formation)
Type: biochemical
condition parameters: bound given in uM
quantity name: IC50

compound: C[C@H](Nc1ncnc(N)c1C#Cc1ccc(F)cn1)c1nc2cccc(Cl)c2c(=O)n1-c1cc(F)cc(F)c1 (single isomer, unassigned) [Compound 9a]
quantity name: IC50
endpoint value: > 1 µM

compound: C[C@H](Nc1ncnc(N)c1C#Cc1cnccn1)c1nc2cccc(C(F)F)c2c(=O)n1-c1cc(F)cc(F)c1 [Compound 66a]
quantity name: IC50
endpoint value: > 1 µM

compound: CC[C@H](Nc1ncnc(N)c1C#Cc1cnccn1)c1nc2cccc(C)c2c(=O)n1-c1cc(F)cc(F)c1 [Compound 108a]
quantity name: IC50
endpoint value: > 1 µM

compound: C[C@H](Nc1ncnc(N)c1C#Cc1ccc(F)cn1)c1nc2ccc(F)cc2c(=O)n1-c1ccccc1 [Compound 90a]
quantity name: IC50
endpoint value: > 1 µM

compound: C[C@H](Nc1ncnc(N)c1C#Cc1ccc(OC(F)(F)F)cc1)c1nc2cccc(Cl)c2c(=O)n1-c1ccccc1 [Compound 27a]
quantity name: IC50
endpoint value: > 1 µM

compound: C[C@H](Nc1ncnc(N)c1C#Cc1ccc(C(F)(F)F)cn1)c1nc2cccc(Cl)c2c(=O)n1-c1ccccc1 [Compound 132a]
quantity name: IC50
endpoint value: > 1 µM

compound: C[C@H](Nc1ncnc(N)c1C#Cc1ccccn1)c1nc2cccc(Cl)c2c(=O)n1-c1cc(F)cc(F)c1 [Compound 45a]
quantity name: IC50
endpoint value: > 1 µM

compound: C[C@H](Nc1ncnc(N)c1C#Cc1ncc(F)cc1F)c1nc2cccc(Cl)c2c(=O)n1-c1ccccc1 [Compound 82a]
quantity name: IC50
endpoint value: > 1 µM

compound: CC[C@H](Nc1ncnc(N)c1C#Cc1cnccn1)c1nc2cccc(C(F)F)c2c(=O)n1-c1cc(F)cc(F)c1 [Compound 74a]
quantity name: IC50
endpoint value: > 1 µM

compound: C[C@H](Nc1ncnc(N)c1C#Cc1ccc(OC(F)(F)F)cc1)c1nc2cccc(Cl)c2c(=O)n1-c1cc(F)cc(F)c1 [Compound 26a]
quantity name: IC50
endpoint value: > 1 µM

compound: C[C@H](Nc1ncnc(N)c1C#Cc1ccc(C(N)=O)cn1)c1nc2cccc(Cl)c2c(=O)n1-c1cc(F)cc(F)c1 [Compound 136a]
quantity name: IC50
endpoint value: > 1 µM

compound: C[C@H](Nc1ncnc(N)c1C#Cc1cnccn1)c1nc2c(F)cccc2c(=O)n1-c1cc(F)cc(F)c1 [Compound 100a]
quantity name: IC50
endpoint value: > 1 µM

compound: Cc1ccc(F)c2nc([C@H](C)Nc3ncnc(N)c3C#Cc3ccc(F)cn3)n(-c3cccc(C#N)c3)c(=O)c12 [Compound 72a]
quantity name: IC50
endpoint value: > 1 µM

compound: C[C@H](Nc1ncnc(N)c1C#Cc1cnccn1)c1nc2cccc(F)c2c(=O)n1-c1cc(F)cc(F)c1 [Compound 87a]
quantity name: IC50
endpoint value: > 1 µM
